Assayed system: SARS-CoV-2 hexaproline stabilized pre-fusion spike glycoprotein (S6P) (SARS-CoV-2, ancestral (Wuhan-Hu-1 …, UniProt P0DTC2, stabilised))
Readout label: binding result

Binder: COVA2-17 (antibody, V domains shown) VH: QVQLVESGAEVKKPGSSVKVSCKASGGTFSSYGINWVRQAPGQGLEWMGGIIPIFGTANYAQKFQGRVTITTDESTSTAYMELSSLRSEDTAVYYCASFGDDSGDEGVRWGQGTLVTVSS VL: EIVMTQSPATLSLSPGERATLSCRASQSVSSYLAWYQQKPGQAPRLLIYDASNRATGIPARFSGSGSGTDFTLTISSLEPEDFAVYYCQQRSNWPPYTFGQGTKVEIK
Assay result: binds

Binder: COVA2-18 (antibody, V domains shown) VH: EVQLVQSGAEVKKPGSSVKVSCKASGGTFSSYAISWVRQAPGQGLEWMGGIIPIFGTTNYAQKFQGRVTITTDESTSTAYMELSSLRSEDTAVYYCARVYSYDSSGYYLEYWGQGTRVTVSS VL: EIVLTQSPATLSLSPGERATLSCRASQSVSSYLAWYQQKPGQAPRLLIYDASNRATGIPARFSGSGSGTDFTLTISSLEPEDFAVYYCQQRSNWPPSITFGQGTRLEIK
Assay result: binds

FYI, the data here is from paper PMC10318062.
